test: Phase 1 pharmacokinetics (liquid chromatography/tandem mass spectrometry); assay type: in vivo, human; conditions: human, in vivo, oral, 100 mg, phase 1, Day 1, 100 mg; read-out: Tmax, Median
metric: Tmax (h)
Please give a number only; it is taken to be in h.

Asked: What value of Tmax has been recorded for this entry: C1=C/COCc2cc(ccc2OCCN2CCCC2)Nc2nccc(n2)-c2cccc(c2)COC/1
Given back: 5

====

assay: Phase 1 pharmacokinetics (liquid chromatography/tandem mass spectrometry); assay type: in vivo, human; details: human, in vivo, oral, 500 mg, phase 1, Day 1, 500 mg; read-out: AUC0-24h, Median
metric: AUC(0-t) (µg·h/mL)
Please give a number only; it is taken to be in µg·h/mL.

Asked: What value of AUC(0-t) has been recorded for this entry: C1=C/COCc2cc(ccc2OCCN2CCCC2)Nc2nccc(n2)-c2cccc(c2)COC/1 [pacritinib]
Given back: 118

====

assay: Phase 1 pharmacokinetics (liquid chromatography/tandem mass spectrometry); format: in vivo, human; conditions: human, in vivo, oral, 100 mg, phase 1, Day 1, 100 mg; read-out: Cmax, Mean
metric: Cmax

Asked: What value of Cmax has been recorded for this entry: C1=C/COCc2cc(ccc2OCCN2CCCC2)Nc2nccc(n2)-c2cccc(c2)COC/1
Given back: 3700 ng/mL

====

assay: Phase 1 pharmacokinetics (liquid chromatography/tandem mass spectrometry); format: in vivo, human; conditions: human, in vivo, oral, 300 mg, phase 1, Day 1, 300 mg; read-out: AUC0-24h, Median
metric: AUC(0-t) (ng·h/mL)
Please give a number only; it is taken to be in ng·h/mL.

Asked: What value of AUC(0-t) has been recorded for this entry: C1=C/COCc2cc(ccc2OCCN2CCCC2)Nc2nccc(n2)-c2cccc(c2)COC/1
Given back: 98200

====

test: Phase 1 pharmacokinetics (liquid chromatography/tandem mass spectrometry); type: in vivo, human; settings: human, in vivo, oral, 400 mg, phase 1, Day 15, 400 mg; read-out: AUC0-24h, Median
metric: AUC(0-t)
Answer format reminder: number followed by unit.

Asked: What value of AUC(0-t) has been recorded for this entry: C1=C/COCc2cc(ccc2OCCN2CCCC2)Nc2nccc(n2)-c2cccc(c2)COC/1
Given back: 240 µg·h/mL

====

experiment: Phase 1 pharmacokinetics (liquid chromatography/tandem mass spectrometry); assay type: in vivo, human; conditions: human, in vivo, oral, 150 mg, phase 1, Day 15, 150 mg; read-out: Tmax, Median
metric: Tmax (h)
Please give a number only; it is taken to be in h.

Asked: What value of Tmax has been recorded for this entry: C1=C/COCc2cc(ccc2OCCN2CCCC2)Nc2nccc(n2)-c2cccc(c2)COC/1
Given back: 2.5

====

assay: Phase 1 pharmacokinetics (liquid chromatography/tandem mass spectrometry); format: in vivo, human; details: human, in vivo, oral, 150 mg, phase 1, Day 15, 150 mg; read-out: Cmax, Mean
metric: Cmax

Asked: What value of Cmax has been recorded for this entry: C1=C/COCc2cc(ccc2OCCN2CCCC2)Nc2nccc(n2)-c2cccc(c2)COC/1
Given back: 6700 ng/mL

====

Assay: Phase 1 pharmacokinetics (liquid chromatography/tandem mass spectrometry)
Format: in vivo, human
Conditions: human, in vivo, po, 200 mg, phase 1, Day 15, 200 mg (HCl and citrate salt cohorts pooled); read-out: AUC0-24h, Median
Method: In phase 1, full PK sampling was performed on days 1 and 15 of cycle 1 and day 1 of cycle 2. Trough PK samples were drawn prior to dosing on days 8 and 22 of cycle 1 and at 24, 48, and 72 h after dosing on day 25 of cycle 1. A sample was collected before dosing on day 1 of cycles 4, 7, and 10. Pacritinib concentrations were determined using a validated liquid chromatography/tandem mass spectrometry method. […]
metric: AUC(0-t)

Asked: What value of AUC(0-t) has been recorded for this entry: C1=C/COCc2cc(ccc2OCCN2CCCC2)Nc2nccc(n2)-c2cccc(c2)COC/1 [pacritinib]
Given back: 130 µg·h/mL

====

experiment: Phase 1 pharmacokinetics (liquid chromatography/tandem mass spectrometry); assay type: in vivo, human; settings: human, in vivo, oral, 500 mg, phase 1, Day 1, 500 mg; read-out: AUC0-24h, Mean
metric: AUC(0-t) (µg·h/mL)
Please give a number only; it is taken to be in µg·h/mL.

Asked: What value of AUC(0-t) has been recorded for this entry: C1=C/COCc2cc(ccc2OCCN2CCCC2)Nc2nccc(n2)-c2cccc(c2)COC/1
Given back: 141

====

assay: Phase 1 pharmacokinetics (liquid chromatography/tandem mass spectrometry); assay type: in vivo, human; conditions: human, in vivo, oral, 100 mg, phase 1, Day 15, 100 mg; read-out: Cmax, Median
metric: Cmax (ng/mL)
Please give a number only; it is taken to be in ng/mL.

Asked: What value of Cmax has been recorded for this entry: C1=C/COCc2cc(ccc2OCCN2CCCC2)Nc2nccc(n2)-c2cccc(c2)COC/1
Given back: 6180

====

assay: Phase 1 pharmacokinetics (liquid chromatography/tandem mass spectrometry); format: in vivo, human; settings: human, in vivo, oral, 100 mg, phase 1, Day 1, 100 mg; read-out: Cmax, Median
metric: Cmax (ng/mL)
Please give a number only; it is taken to be in ng/mL.

Asked: What value of Cmax has been recorded for this entry: C1=C/COCc2cc(ccc2OCCN2CCCC2)Nc2nccc(n2)-c2cccc(c2)COC/1
Given back: 2910

====

assay: Phase 1 pharmacokinetics (liquid chromatography/tandem mass spectrometry); type: in vivo, human; conditions: human, in vivo, oral, 400 mg, phase 1, Day 15, 400 mg; read-out: AUC0-24h, Mean
metric: AUC(0-t) (µg·h/mL)
Please give a number only; it is taken to be in µg·h/mL.

Asked: What value of AUC(0-t) has been recorded for this entry: C1=C/COCc2cc(ccc2OCCN2CCCC2)Nc2nccc(n2)-c2cccc(c2)COC/1 [pacritinib]
Given back: 203

====

experiment: Phase 1 pharmacokinetics (liquid chromatography/tandem mass spectrometry); format: in vivo, human; conditions: human, in vivo, oral, 600 mg, phase 1, Day 15, 600 mg; read-out: AUC0-24h, Mean
metric: AUC(0-t) (µg·h/mL)
Please give a number only; it is taken to be in µg·h/mL.

Asked: What value of AUC(0-t) has been recorded for this entry: C1=C/COCc2cc(ccc2OCCN2CCCC2)Nc2nccc(n2)-c2cccc(c2)COC/1
Given back: 161

====

Assay: Phase 1 pharmacokinetics (liquid chromatography/tandem mass spectrometry)
Type: in vivo, human
Details: human, in vivo, po, 200 mg, phase 1, Day 1, 200 mg (HCl and citrate salt cohorts pooled); read-out: Cmax, Mean
Experimental: In phase 1, full PK sampling was performed on days 1 and 15 of cycle 1 and day 1 of cycle 2. Trough PK samples were drawn prior to dosing on days 8 and 22 of cycle 1 and at 24, 48, and 72 h after dosing on day 25 of cycle 1. A sample was collected before dosing on day 1 of cycles 4, 7, and 10. Pacritinib concentrations were determined using a validated liquid chromatography/tandem mass spectrometry method. […]
metric: Cmax (ng/mL)
Please give a number only; it is taken to be in ng/mL.

Asked: What value of Cmax has been recorded for this entry: C1=C/COCc2cc(ccc2OCCN2CCCC2)Nc2nccc(n2)-c2cccc(c2)COC/1
Given back: 5000

====

assay: Phase 1 pharmacokinetics (liquid chromatography/tandem mass spectrometry); type: in vivo, human; conditions: human, in vivo, oral, 150 mg, phase 1, Day 1, 150 mg; read-out: Cmax, Mean
metric: Cmax (ng/mL)
Please give a number only; it is taken to be in ng/mL.

Asked: What value of Cmax has been recorded for this entry: C1=C/COCc2cc(ccc2OCCN2CCCC2)Nc2nccc(n2)-c2cccc(c2)COC/1
Given back: 3720

====

assay: Phase 1 pharmacokinetics (liquid chromatography/tandem mass spectrometry); format: in vivo, human; settings: human, in vivo, oral, 400 mg, phase 1, Day 15, 400 mg; read-out: Cmax, Mean
metric: Cmax (ng/mL)
Please give a number only; it is taken to be in ng/mL.

Asked: What value of Cmax has been recorded for this entry: C1=C/COCc2cc(ccc2OCCN2CCCC2)Nc2nccc(n2)-c2cccc(c2)COC/1
Given back: 9770

====

assay: Phase 1 pharmacokinetics (liquid chromatography/tandem mass spectrometry); format: in vivo, human; conditions: human, in vivo, oral, 500 mg, phase 1, Day 15, 500 mg; read-out: AUC0-24h, Median
metric: AUC(0-t) (µg·h/mL)
Please give a number only; it is taken to be in µg·h/mL.

Asked: What value of AUC(0-t) has been recorded for this entry: C1=C/COCc2cc(ccc2OCCN2CCCC2)Nc2nccc(n2)-c2cccc(c2)COC/1
Given back: 161

====

test: Phase 1 pharmacokinetics (liquid chromatography/tandem mass spectrometry); type: in vivo, human; conditions: human, in vivo, oral, 400 mg, phase 1, Day 15, 400 mg; read-out: Cmax, Median
metric: Cmax (ng/mL)
Please give a number only; it is taken to be in ng/mL.

Asked: What value of Cmax has been recorded for this entry: C1=C/COCc2cc(ccc2OCCN2CCCC2)Nc2nccc(n2)-c2cccc(c2)COC/1 [pacritinib]
Given back: 11700
